Measured Binding AUC, listed per entry.
target.or.test.system: T1, recombinant SARS-CoV-2 Spike RBD domain, Delta variant (SARS-CoV-2)
T1 construct: also called RBD Delta variant
test.description: ELISA on coated RBD
reported.property: Binding AUC

SPK002M C3 antibody (antibody, human IgG1, kappa, V domains shown) VH: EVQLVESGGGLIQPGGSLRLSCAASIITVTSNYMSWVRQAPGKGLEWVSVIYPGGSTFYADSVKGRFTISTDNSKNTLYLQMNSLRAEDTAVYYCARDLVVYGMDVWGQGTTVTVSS VL: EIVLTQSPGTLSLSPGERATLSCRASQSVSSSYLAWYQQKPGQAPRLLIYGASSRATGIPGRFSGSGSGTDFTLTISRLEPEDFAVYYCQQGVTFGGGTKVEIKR: 33
SPK002M A2 antibody (antibody, human IgG1, kappa, V domains shown) VH: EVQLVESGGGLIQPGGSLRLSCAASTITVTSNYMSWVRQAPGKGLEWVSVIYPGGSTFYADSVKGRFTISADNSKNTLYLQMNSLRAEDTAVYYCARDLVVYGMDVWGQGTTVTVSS VL: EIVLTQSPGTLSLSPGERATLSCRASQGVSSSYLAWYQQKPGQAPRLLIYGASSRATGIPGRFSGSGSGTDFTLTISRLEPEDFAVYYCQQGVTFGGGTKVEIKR: 31
